Catalogue of compounds with associated log10 of IC50
Biological target: Bacterial 70S ribosome
Test: Binding affinity to Escherichia coli ribosome assessed as inhibition of transcription-translational activity by luciferase assay
Annotation: log10 of IC50, µM basis.

Recorded results for 7 compounds are shown here.
N[C@@H]1C[C@H](N)[C@@]2(CC[C@@H](O)[C@@H](O)CO2)[C@H](O)[C@H]1O
2.23
N[C@@H]1C[C@H](N)[C@@]2(CC[C@H](O)[C@H](O)CO2)[C@H](O)[C@H]1O
2.07
NC[C@@H]1O[C@H](O[C@H]2[C@@H](O)[C@H](O[C@@H]3[C@@H](O)[C@H](N)C[C@H](N)[C@H]3O[C@H]3O[C@H](CN)[C@@H](O)[C@H](O)[C@H]3N)O[C@@H]2CO)[C@H](N)[C@@H](O)[C@@H]1O
-1.49
NCC[C@H](O)C(=O)N[C@@H]1C[C@H](N)[C@@]2(CC[C@H](O)[C@H](O)CO2)[C@H](O)[C@H]1O
2.27
NCCCC[C@H](N)C(=O)N[C@@H]1C[C@H](N)[C@@]2(CC[C@H](O)[C@H](O)CO2)[C@H](O)[C@H]1O
1.99
NC[C@H]1O[C@H](O[C@H]2[C@H](O)[C@@H](O)[C@H](N)C[C@@H]2N)[C@H](N)[C@@H](O)[C@@H]1O
0.70
N[C@@H]1C[C@H](N)[C@@]2(C[C@H](O)[C@H](O)CO2)[C@H](O)[C@H]1O
1.05

Ask: Indicate its recorded log10 of IC50; the compound in question is "C=CCC(C)(C)CN[C@@H]1C[C@H](N)[C@@]2(CCC=CCO2)[C@H](O)[C@H]1O"
Result: 2.63

====

Molecular target: Nucleic Acid
Test: Binding affinity to RNA by RNA fluorescence assay
Type: nucleic-acid assay
The entries below are paired with their reported pEC50.
Entry type: numeric. Quantity: pEC50, the -log10 of concentration in molar units.

Below are worked cases with known answers.
C=CCC(C)(C)CN[C@@H]1C[C@H](N)[C@@]2(CCC=CCO2)[C@H](O)[C@H]1O
4.20
N[C@@H]1C[C@H](N)[C@@]2(CC[C@@H](O)[C@@H](O)CO2)[C@H](O)[C@H]1O
3.85
NCCCC[C@H](N)C(=O)N[C@@H]1C[C@H](N)[C@@]2(CC[C@H](O)[C@H](O)CO2)[C@H](O)[C@H]1O
4.92

Ask: Find pEC50 for "N[C@@H]1C[C@H](N)[C@@]2(C[C@H](O)[C@H](O)CO2)[C@H](O)[C@H]1O" on Nucleic Acid and write it down.
Result: 5.19

Every entry's value here was drawn from ChEMBL document CHEMBL1629423.
